Origin of the recorded values: PubChem BioAssay (NCI)

Parameter: TGI. Scope: all listed entries.
# System: KM20L2 colon
# test details: NCI tumour cell line growth inhibition, 48 h
The reply should contain only the number, in µM.

Some entries whose results are on file:
COC(=O)[C@]1(c2ccc(N(C)C)cc2OC)C[C@@H]2CCCN(CCc3c1[nH]c1ccccc31)C2; 32.5
NCCNC(=O)c1cccc2cc3ccccc3nc12; 12.5
COC1=C(C)C(=O)C2=C(C1=O)C1C3CC4=C(C(=O)C(OC)=C(C)C4=O)C(CNC(=O)C(C)O)N3C(C#N)C(C2)N1C (stereo not given); 3.1

From here, focus on the item given below.
Return TGI measured with KM20L2 colon given this compound: CCOc1ccc(C(C)c2cc3c(cc2OC)OCO3)cc1 (stereo not given)
0.414

* * *

# Test system: SF-295 CNS
# test details: NCI tumour cell line growth inhibition, 48 h
Parameter: TGI. Scope: all listed entries.

Using the record for CC(C(=O)c1ccccc1)C1(O)C(=O)Nc2ccc(Cl)cc21 (centres undefined) , report its TGI.
> 100 µM

Using the record for c1ccc(SC23C4C5C6C4C2C6C53)nc1 (centres undefined) , report its TGI.
> 100 µM

Using the record for COc1ccc(/C=C2\SC(=Nc3ccccc3)NC2=O)cc1 , report its TGI.
> 100 µM

Using the record for O=C(c1ccccc1)c1c(C(F)(F)F)n([O-])c2cc(C(F)(F)F)ccc2[n+]1=O , report its TGI.
2.97 µM

Using the record for Cc1[nH]c2ccccc2c1/C=N/NC(=O)c1cccc(I)c1 , report its TGI.
43.3 µM

* * *

Parameter: TGI. Scope: all listed entries.
# System: IGROV1 ovarian
# test details: NCI tumour cell line growth inhibition, 48 h

CC(C)C(=O)c1c(C(F)(F)F)n([O-])c2cc(F)c(F)cc2[n+]1=O; 53.7 µM
O=C(O)c1c2c(cc3c1CC1(Cc4cc5c(cc4C1=O)CCC5)C3)CCC2 (configuration not stated); > 100 µM
CC1CC(C)C2OC2(C)C[C@H](C)C(=O)NC(C)C(=O)N(C)[C@H](Cc2c(Br)[nH]c3ccccc23)C(=O)N[C@@H](c2ccc(O)cc2)CC(=O)O1 (some centres not stated); 0.683 µM

Return TGI measured with IGROV1 ovarian given this compound: CN1Cc2cc(O)c(O)cc2C(O)C1 (configuration not stated)
> 100 µM

Return TGI measured with IGROV1 ovarian given this compound: C#CC1(O)CCC2[C@@H]3CCc4cc(Oc5nc(F)nc(-c6c7ccccc7c(SCC)n6CCC)n5)ccc4C3CC[C@@]21C (some centres not stated)
> 100 µM

Return TGI measured with IGROV1 ovarian given this compound: CCOC(=O)C1=C(C)N(NC(N)=O)C2(N)N(NC(N)=O)C(C)=C(C(=O)OCC)C12C(=O)OCC (configuration not stated)
> 100 µM

Return TGI measured with IGROV1 ovarian given this compound: O=C(Nc1ccc(F)cc1)Nc1ccc(Br)c(C(F)(F)F)c1
15.2 µM

Return TGI measured with IGROV1 ovarian given this compound: CCCCCCCC(=O)SCC/C=C/[C@@H]1CC(=O)NCc2nc(cs2)C2=N[C@@](C)(CS2)C(=O)N[C@@H](C(C)C)C(=O)N1
1.8 µM

Return TGI measured with IGROV1 ovarian given this compound: Cn1nc(C(F)(F)F)c(-c2cc(C(F)(F)F)cc(C(F)(F)F)c2)c1-c1ccc(OCc2ccc(Cl)cc2)cc1O
12.5 µM

Return TGI measured with IGROV1 ovarian given this compound: Cc1cc2c(cc1C)C(=O)C1(C2)Cc2cc3c(cc2C1=O)CCC3 (configuration not stated)
> 100 µM

Return TGI measured with IGROV1 ovarian given this compound: C=CCC1(C(=O)OC(C)(C)C)C(OC)=C(C(=O)OC(C)(C)C)C2C1C(C(=O)OC(C)(C)C)=C(OC)C2(CC=C)C(=O)OC(C)(C)C (configuration not stated)
> 100 µM

* * *

Parameter: TGI. Scope: all listed entries.
# System: IGROV1 ovarian
# test details: NCI tumour cell line growth inhibition, 48 h

Some entries whose results are on file:
C=C1C(=O)O[C@H]2[C@H]1CC/C(COC(=O)OC/C1=C/CC[C@@]3(C)O[C@H]3[C@H]3OC(=O)[C@@H](CN(C)C)[C@@H]3CC1)=C\CC[C@@]1(C)O[C@@H]21; 8.22 µM
COC1=CC(c2ccc[nH]2)=N/C1=C\c1[nH]c(C)c(CC(=O)OCc2ccccc2)c1C; 1.34 µM
CN(C)CCCC1(c2ccc(F)cc2)OCc2cc(-c3cc4ccccc4s3)ccc21 (stereo not given); 2.46 µM
C=CCN1/C(=C2\SC(=S)N(c3ccc(C)cc3)C2=O)Sc2c1ncn(C)c2=O; > 100 µM

Using the record for CO/N=C(\C([O-])=N\[n+]1cnn(CC(=O)OC(C)(C)C)c1)c1csc(NC(c2ccccc2)(c2ccccc2)c2ccccc2)n1 , report its TGI.
> 10 µM

* * *

# Tested on: SN12C renal
# test details: NCI tumour cell line growth inhibition, 48 h
property label: TGI (µM)
The reply should contain only the number, in µM.

CCC1(OC(=O)CN)C(=O)OCc2c1cc1n(c2=O)Cc2cc3ccccc3nc2-1 (configuration not stated); 0.64
Cc1c(Cl)cccc1N=NC(=O)NNc1cccc(Cl)c1C; 32.4

From here, focus on the item given below.
Using the record for COC1=C(Cl)C(=O)c2c(O)ccc(O)c2C1=O , report its TGI.
2.74

* * *

# Test system: LOX IMVI melanoma
# test details: NCI tumour cell line growth inhibition, 48 h
property label: TGI (µM)
The reply should contain only the number, in µM.

Some entries whose results are on file:
CC(C)=CC(=O)N[C@H]1CC[C@]2(C)C3CC[C@]4(C)C(C(C)N(C)C)=CCC4C3CCC2[C@H]1O (some centres undefined); 3.49
CN(C)CCNC(=O)c1cccc2nc3c(C(=O)NCCN(C)C)cccc3nc12; 1.49
CN(CCCNC(=O)c1nn(C)c2c1Cc1ccccc1-2)CCCNC(=O)c1nn(C)c2c1Cc1ccccc1-2; 21.1

From here, focus on the item given below.
Return TGI measured with LOX IMVI melanoma given this compound: C[C@H]1CNC(=O)c2cnn3ccc(nc23)N[C@H](C)c2cc(F)ccc2O1
1.43

* * *

# Tested on: OVCAR-3 ovarian
# test details: NCI tumour cell line growth inhibition, 48 h; in the data active means GI50 below about 0.43 µM; inactive means the rest
Form entry, call: pick from active, inactive

CC(=O)O[C@H]1C(=O)[C@@]2(C)[C@H]([C@H](OC(=O)c3ccccc3)[C@]3(O)C[C@H](OC(=O)[C@H](OC(=O)OC[C@H]4COC(C)(C)O4)[C@@H](NC(=O)c4ccccc4)c4ccccc4)C(C)=C1C3(C)C)[C@]1(OC(C)=O)CO[C@@H]1C[C@@H]2O; active

Dear colleague, could you share the recorded outcome for CC([C@H]1CC=C2C3CCC4=C[C@@H](N(C)C)CC[C@]4(C)C3CC[C@@]21C)N(C)C (stereo partly drawn) when you have a moment?
inactive

Dear colleague, could you share the recorded outcome for Cc1c(N)nc(C(CC(N)=O)NCC(N)C(N)=O)nc1C(=O)NC(C(=O)NC(C)C(O)C(C)C(=O)NC(C(=O)NCCc1nc(-c2nc(C(=O)NCCCNC(C)c3ccccc3)cs2)cs1)C(C)O)C(OC1OC(CO)C(O)C(O)C1OC1OC(CO)C(O)C(OC(N)=O)C1O)c1cnc[nH]1 (stereo not drawn) when you have a moment?
inactive

Dear colleague, could you share the recorded outcome for ClCc1ccccc1Cn1cnc2c(Cl)ncnc21 when you have a moment?
inactive

Dear colleague, could you share the recorded outcome for Cc1nc2ccccn2c1NC(=O)NNC(=S)Nc1ccc(F)cc1 when you have a moment?
inactive

Dear colleague, could you share the recorded outcome for Cc1ccc2c(c1)C(=O)c1c-2c(OCCCN(C)C)nc2ccccc12 when you have a moment?
inactive

Dear colleague, could you share the recorded outcome for CO[C@H]1C[C@](C)(O)Cc2cc3c(c(O)c21)C(=O)c1c(O)cc2c(c1C3=O)O[C@@H]1O[C@@]2(C)[C@H](O)[C@@H](N(C)C)[C@@H]1O when you have a moment?
inactive

Dear colleague, could you share the recorded outcome for CCCCCCCCCCCCCC[n+]1ccc(C(N)=O)cc1 when you have a moment?
inactive

* * *

# Tested on: UO-31 renal
# test details: NCI tumour cell line growth inhibition, 48 h
Threshold rule: TGI greater than or equal to 6 µM is fulfilled; below that, not fulfilled.

O=C(c1ccccc1)c1c(C(F)(F)F)n([O-])c2cc(C(F)(F)F)ccc2[n+]1=O; not fulfilled
CCCCCCCCP(=O)(O)OP(=O)(O)OCC1OC(n2ccc(N)nc2=O)C(O)C1O (configuration not stated); fulfilled
CN1Cc2cc(O)c(O)cc2C(O)C1 (configuration not stated); fulfilled

Is TGI for CC1=NOC(=O)/C1=C/c1ccc([N+](=O)[O-])cc1 at or above 6 µM?
fulfilled

Is TGI for O=C(C/C(=N/O)C(F)(F)F)c1cccs1 at or above 6 µM?
fulfilled

Is TGI for Cc1cc2c(cc1C)C(=O)C1(C2)Cc2cc3c(cc2C1=O)CCC3 (configuration not stated) at or above 6 µM?
fulfilled
